Test Description: method code SF, from DOI: 10.1002/jps.2600780616, PMID: 2527297
Measurement Conditions: pH 7.4
Measurement Label: logD

// worked examples, logD included
Supply reported logD belonging to this molecule: N#CCCN(N)c1nc2cc(C(F)(F)F)ccc2o1
1.72

Provide only the value of recorded logD for N#CCCN(N)c1nc2ccccc2o1
0.9

Specify logD for CSc1ccc2oc(N(N)CCC#N)nc2c1 and stop.
1.5

a = COc1ccc2oc(N(N)CCC#N)nc2c1
b = CCc1ccc2oc(N(N)CCC#N)nc2c1
Lab notebook, comparison: a versus b , higher logD goes to which? Let me know the label of the one you choose.
b
(b: 1.91, a: 0.98)

---

Test Description: method code SF, from DOI: 10.1002/jps.2600780616, PMID: 2527297
Measurement Conditions: pH 7.4
Measurement Label: logD

Please review the following examples before continuing.
Let me know recorded logD for CS(=O)c1ccc2oc(N(N)CCC#N)nc2c1 (centres undefined) , thanks.
-0.53

Item CC(C)(C)c1ccc2oc(N(N)CCC#N)nc2c1 : provide logD
2.82

Identify the reported logD for the following entry. N#CCCN(N)c1nc2cc(Cl)ccc2o1
1.72

Tell us which logD value is on record for CS(=O)(=O)c1ccc2oc(N(N)CCC#N)nc2c1
-0.58

Answer with reported logD of N#CCCN(N)c1nc2cc(C#N)ccc2o1
0.42

Name the recorded logD of the item N#CCCN(N)c1nc2cc(C(=O)c3ccccc3)ccc2o1 in your answer.
1.94

I = Cc1ccc2oc(N(N)CCC#N)nc2c1
II = N#CCCN(N)c1nc2cc(OCc3ccccc3)ccc2o1
Lab log: flag the item ( I or II ) with the smaller logD figure. Write down the label attached to your selection.
I
(I: 1.48, II: 2.52)
